Target: 14-3-3γ (Homo sapiens)
Construct: made in house; host or cells: E. coli NiCo21 (DE3)
Sequence (P61981 1-247): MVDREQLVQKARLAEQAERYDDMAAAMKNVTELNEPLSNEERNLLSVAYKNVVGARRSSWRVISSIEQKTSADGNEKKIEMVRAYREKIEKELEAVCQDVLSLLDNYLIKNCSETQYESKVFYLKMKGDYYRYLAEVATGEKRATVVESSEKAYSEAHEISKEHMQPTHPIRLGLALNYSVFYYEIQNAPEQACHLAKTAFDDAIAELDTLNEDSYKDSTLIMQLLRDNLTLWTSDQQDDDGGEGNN
Test: Fluorescence anisotropy (FA) binary binding study: 14-3-3 titrated to fluorescein-labelled peptide
Conditions: FA KD relative to the previous (one amino acid longer) peptide
Where a SMILES comes first, the peptide text is derived from it. [ ]: non-standard residue; d: D form. The star is where a group is joined. ξ: configuration not given here. FITC = O=C1OC2(c3ccc(O)cc3Oc3cc(O)ccc32)c2ccc(NC(=S)*)cc21; Phe(4-NO2) = N[C@@H](Cc1ccc([N+](=O)[O-])cc1)C(=O)O; ξAla(4-thiazolyl) = NC(Cc1cscn1)C(=O)O; pS = N[C@@H](COP(=O)(O)O)C(=O)O; β3hS = N[C@@H](CO)CC(=O)O; Nva = CCC[C@H](N)C(=O)O; AEA = NCCOCC(=O)O; βAla = NCCC(=O)O
fold change in binding affinity on truncation: recorded values
Return type: number; implicit unit fold.

>>> measured_result("CCC[C@H](NC(=O)[C@@H](CCCCN)NC(=O)COCCNC(=S)Nc1ccc2c(c1)C(=O)OC21c2ccc(O)cc2Oc2cc(O)ccc21)C(=O)N[C@@H](Cc1ccc([N+](=O)[O-])cc1)C(=O)NC(Cc1cscn1)C(=O)N[C@@H](COP(=O)(O)O)C(=O)N[C@@H](Cc1ccc([N+](=O)[O-])cc1)C(=O)N[C@@H](CO)CC(=O)NCCC(N)=O (stereo partly drawn) [2f] ({FITC-AEA}-[dK][Nva][Phe(4-NO2)][ξAla(4-thiazolyl)][pS][Phe(4-NO2)][β3hS][βAla]-NH2)")
12

Now examine the next entry.
*Q* Return reported fold change in binding affinity on truncation. Input molecule: C[C@H](NC(=O)[C@H](CCCCN)NC(=O)[C@H](Cc1ccc([N+](=O)[O-])cc1)NC(=O)CCNC(=O)C[C@H](CO)NC(=O)[C@H](Cc1ccc([N+](=O)[O-])cc1)NC(=O)[C@@H](N)COP(=O)(O)O)C(=O)N[C@@H](CCCCNC(=S)Nc1ccc2c(c1)C(=O)OC21c2ccc(O)cc2Oc2cc(O)ccc21)C(N)=O [2d] (H-[pS][Phe(4-NO2)][β3hS][βAla][Phe(4-NO2)]KAK(FITC)-NH2)
*A* 43

Reference source: paper PMC9667936
